Each recorded value in this set is attributed to patent US20220259593A1.

Tested on: K562 CRISPRi cells
Assay: Constant region variant library pooled growth screen, K562
Format: cell-based, human
Conditions: sgRNA constant region variants; relative to the original, un-modified constant region cr995; CRISPRi
Entries and their Mean relative activity values follow.
VALUE KIND: Mean relative activity

{"columns": ["MOLECULE", "VALUE KIND", "MEASURED VALUE"],
 "data": [
  ["cr051 (nucleic acid, listed as DNA, chemistry not fully specified) guide: TTTTAACAGCTAAGCTGGAAACAGCATAGCAAGTTTAAATAAGGCTAGTCCGTTATCAACTTGAAAAAGTGGCACCGAGTCGGTGCT", "Mean relative activity", 0.3367],
  ["cr006 (nucleic acid, listed as DNA, chemistry not fully specified) guide: GGTTAAGAGCTAAGCTGGAAACAGCATAGCAAGTTTAAATAAGGCTAGTCCGTTATCAACTTGAAAAAGTGGCACCGAGTCGGTGCT", "Mean relative activity", 0.3275]
]}
